test system: M. smegmatis 103599; experiment: Antimycobacterial activity toward atypical mycobacteria, MIC in broth; type: cell-based
Parameter: MIC (μg/mL) M. smegmatis 103599

Here is how some molecules turned out for MIC (μg/mL) M. smegmatis 103599.
# Compound, MIC (μg/mL) M. smegmatis 103599
rows = [
    ("Cc1c(CN2CCN(C)CC2)cc(-c2ccccc2Cl)n1-c1ccc(F)cc1", ">16 µg/mL"),
    ("Cc1c(CN2CCN(C)CC2)cc(-c2ccc(F)cc2)n1-c1cccc2ccccc12", ">16 µg/mL"),
    ("Cc1c(CN2CCN(C)CC2)cc(-c2ccc(F)cc2)n1-c1ccccc1Cl", ">16 µg/mL"),
]

Form field: reported MIC (μg/mL) M. smegmatis 103599 of Cc1ccc(-n2c(-c3ccc(F)cc3)cc(CN3CCSCC3)c2C)cc1
16 µg/mL

Data request, read-out MIC (μg/mL) M. smegmatis 103599, for Cc1c(CN2CCSCC2)cc(-c2cccc3ccccc23)n1-c1ccc(F)cc1
>16 µg/mL

Would you kindly share the measured MIC (μg/mL) M. smegmatis 103599 for Cc1c(CN2CCN(C)CC2)cc(-c2ccc(F)cc2)n1-c1ccc(Cl)cc1Cl ?
>16 µg/mL

---

system: M. avium 103317; experiment: Antimycobacterial activity toward atypical mycobacteria, MIC in broth; format: cell-based; conditions: Mycobacterium avium, 103317; read-out: MIC (μg/mL) M. avium 103317
MIC values for the compounds below.
Kindly answer with a numeric value in µg/mL, unit omitted.

Record excerpt, results attached:
# Compound, MIC / µg/mL
measured = [
    ("Cc1c(CN2CCSCC2)cc(-c2ccc(F)cc2)n1-c1ccccc1F [Compound 7c]", 8),
    ("Cc1ccc(-c2cc(CN3CCSCC3)c(C)n2-c2ccc(F)cc2)cc1 [Compound 6e]", 8),
    ("[H]/N=C(/N)N[C@H]1[C@H](O)[C@@H](O)[C@H](O[C@@H]2O[C@@H](C)[C@](O)(C=O)[C@H]2O[C@@H]2O[C@@H](CO)[C@H](O)[C@@H](O)[C@@H]2NC)[C@@H](N/C(N)=N\\[H])[C@@H]1O [Streptomycin, reference compound]", 8),
    ("Cc1c(CN2CCN(C)CC2)cc(-c2ccc(Cl)cc2)n1-c1ccc(Cl)cc1 [BM212, reference compound]", 0.4),
]

Okay, next one:
Which value of MIC has been reported for CO[C@H]1/C=C/O[C@@]2(C)Oc3c(C)c(O)c4c(O)c(c(/C=N/N5CCN(C)CC5)c(O)c4c3C2=O)NC(=O)/C(C)=C\C=C\[C@H](C)[C@H](O)[C@@H](C)[C@@H](O)[C@@H](C)[C@H](OC(C)=O)[C@@H]1C [Rifampin, reference compound] in the records?
0.3

---

tested on: M. smegmatis 103599; experiment: Antimycobacterial activity toward atypical mycobacteria, MIC in broth; assay type: cell-based
Parameter: MIC (μg/mL) M. smegmatis 103599

# Molecule, System name, MIC (μg/mL) M. smegmatis 103599
data = [
    ("Cc1c(CN2CCSCC2)cc(-c2ccc(Cl)cc2Cl)n1-c1ccc(F)cc1 [Compound 6g]", "M. smegmatis 103599", ">16 µg/mL"),
    ("Cc1c(CN2CCN(C)CC2)cc(-c2ccc(F)cc2)n1-c1ccccc1F [Compound 7d]", "M. smegmatis 103599", "0.3 µg/mL"),
    ("Cc1c(CN2CCN(C)CC2)cc(-c2ccc(Cl)cc2Cl)n1-c1ccc(F)cc1 [Compound 6h]", "M. smegmatis 103599", ">16 µg/mL"),
    ("Cc1c(CN2CCSCC2)cc(-c2ccc(F)cc2)n1-c1cccc2ccccc12 [Compound 7k]", "M. smegmatis 103599", ">16 µg/mL"),
    ("Cc1c(CN2CCSCC2)cc(-c2ccc(F)cc2F)n1-c1ccc(F)cc1 [Compound 6i]", "M. smegmatis 103599", ">16 µg/mL"),
    ("Cc1c(CN2CCSCC2)cc(-c2ccccc2F)n1-c1ccc(F)cc1 [Compound 6c]", "M. smegmatis 103599", ">16 µg/mL"),
]

Query: MIC (μg/mL) M. smegmatis 103599; subject: Cc1ccc(-c2cc(CN3CCN(C)CC3)c(C)n2-c2ccc(F)cc2)cc1 [Compound 6f]
8 µg/mL

Return reported MIC (μg/mL) M. smegmatis 103599; argument: Cc1c(CN2CCN(C)CC2)cc(-c2cccc3ccccc23)n1-c1ccc(F)cc1 [Compound 6l]
>16 µg/mL

Would you kindly share the measured MIC (μg/mL) M. smegmatis 103599 for Cc1c(CN2CCSCC2)cc(-c2ccc(F)cc2)n1-c1ccc(F)cc1F [Compound 7i] ?
>16 µg/mL
